# Tested on: c-Abl (mouse);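 note: 11-residue human phosphosite peptides and single-mutation variants displayed on the E. coli surface, counted by deep sequencing, each peptide's frequency after selection divided by its frequency in the unselected input library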;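 note: frequency after pTyr selection over input frequency; kinase dosed for 20-30% of maximal phosphorylation in three min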
# assay notes: phosphorylation enrichment, bacterial display (enrichment ratio); higher = better substrate or ligand; peptides without Tyr show the background
Label Y when phosphorylation enrichment is at or above 0.8; anything below gets N.

Worked examples follow.
>  <monomer sequence>
SSSAIYDNPDL [DCP1B_Y191_N195D]

>  <class assignment>
Y

$$$$
>  <monomer sequence>
IAAEFYDNLPH [DEGS1_Y284_YF]

>  <class assignment>
N

$$$$
>  <monomer sequence>
STGRSYAGVAV [KLHL3_Y577]

>  <class assignment>
N

$$$$

Q: Decide: is the reported value of phosphorylation enrichment for VFAPDYIAGVS [NOB1_Y366] equal to or greater than 0.8?
Ans: Y

Q: Decide: is the reported value of phosphorylation enrichment for GGGGGYNCSSG [FUS_Y232_R234C] equal to or greater than 0.8?
Ans: N

Q: Decide: is the reported value of phosphorylation enrichment for PELIDYGKLWK [ACTN1_Y193_R197W] equal to or greater than 0.8?
Ans: Y

Q: Decide: is the reported value of phosphorylation enrichment for SMAKYYASEIA [ACADSB_Y373] equal to or greater than 0.8?
Ans: N

Origin of the recorded values: the supplement of paper PMC10065799
